# Study Target: Human SARS-CoV-2_Wuhan S (SmT1) (SARS-CoV-2 (Wuhan), UniProt P0DTC2 14-1208)
# Experiment Notes: flow cytometry SVNA, VHH vs biotin-S binding to Vero E6 ACE2
Property Name: Imax % (%)
State just the number; it will be interpreted in %.

1. NRCoV2-18 VHH (VHH) VHH: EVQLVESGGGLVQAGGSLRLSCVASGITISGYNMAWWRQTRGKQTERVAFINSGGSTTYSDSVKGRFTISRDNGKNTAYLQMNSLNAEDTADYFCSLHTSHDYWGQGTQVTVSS ... 51
2. NRCoV2-07 VHH (VHH) VHH: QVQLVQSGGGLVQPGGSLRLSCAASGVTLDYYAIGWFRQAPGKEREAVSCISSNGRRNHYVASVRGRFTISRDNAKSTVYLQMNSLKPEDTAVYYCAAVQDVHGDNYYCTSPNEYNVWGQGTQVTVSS ... 86

Now consider the entry below.
## Input I am curious: what Imax % value has been reported for NRCoV2-MRed04 VHH (VHH) VHH: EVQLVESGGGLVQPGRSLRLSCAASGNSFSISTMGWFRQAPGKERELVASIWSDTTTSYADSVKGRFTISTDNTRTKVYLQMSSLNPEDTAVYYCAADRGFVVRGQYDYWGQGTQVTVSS ?
## Output 53

src = patent US20240270826A1
